Biological target: FGFR3 (h) (Homo sapiens)
Test: FGFR3 (enzymatic assay), TR-FRET
Assay type: biochemical
Conditions: 25 μM ATP; read-out: FGFR3 pIC50 (converted)
measurement-kind: IC50

Record for COc1cc(OC)cc(C(CCN2CCCC2=O)c2ccc3ncc(-c4cnn(C)c4)nc3c2)c1.Cl (stereo not drawn) under target or system FGFR3 (h) (Homo sapiens): IC50 reported as ~0.0126 µM

Measured IC50 for this entry COc1cc(OC)cc(C(CCNC(C)C)c2ccc3ncc(-c4cnn(C)c4)nc3c2)c1 (single isomer, unassigned) [Compound 32a] on FGFR3 (h) (Homo sapiens): ~0.912 µM

Query CNCC(O)(c1cc(OC)cc(OC)c1)c1ccc2ncc(-c3cnn(C)c3)nc2c1.Cl (single isomer, unassigned) [Compound 38] on FGFR3 (h) (Homo sapiens); IC50 returned: > 1 µM

====

Record form. Attribute: IC50. Fill in for each entry.
Biological target: FGFR3 (h) (Homo sapiens, UniProt P22607)
Sequence (P22607 23-806): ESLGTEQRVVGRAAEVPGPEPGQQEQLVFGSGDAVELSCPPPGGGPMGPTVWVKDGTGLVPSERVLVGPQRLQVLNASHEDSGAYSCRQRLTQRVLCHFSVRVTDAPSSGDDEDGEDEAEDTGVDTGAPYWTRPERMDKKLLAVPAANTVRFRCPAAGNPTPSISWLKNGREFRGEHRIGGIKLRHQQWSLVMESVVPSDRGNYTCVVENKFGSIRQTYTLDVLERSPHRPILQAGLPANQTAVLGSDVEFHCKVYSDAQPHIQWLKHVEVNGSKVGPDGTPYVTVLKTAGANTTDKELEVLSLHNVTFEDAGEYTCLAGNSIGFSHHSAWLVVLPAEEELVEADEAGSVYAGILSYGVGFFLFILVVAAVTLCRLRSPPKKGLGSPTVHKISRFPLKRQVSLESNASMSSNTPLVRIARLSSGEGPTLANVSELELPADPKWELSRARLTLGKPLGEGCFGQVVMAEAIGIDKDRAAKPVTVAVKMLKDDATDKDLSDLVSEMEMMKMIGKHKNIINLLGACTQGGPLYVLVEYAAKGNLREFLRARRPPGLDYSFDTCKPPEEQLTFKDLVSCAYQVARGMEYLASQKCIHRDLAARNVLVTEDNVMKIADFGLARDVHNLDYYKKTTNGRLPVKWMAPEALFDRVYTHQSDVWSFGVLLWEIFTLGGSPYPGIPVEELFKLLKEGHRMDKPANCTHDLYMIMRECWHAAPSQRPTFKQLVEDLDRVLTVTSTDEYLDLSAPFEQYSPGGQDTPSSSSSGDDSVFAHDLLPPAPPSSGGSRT
Assay: FGFR3 (enzymatic assay), TR-FRET
Assay type: biochemical
Settings: 25 μM ATP; read-out: FGFR3 pIC50 (converted)

Please fill in: IC50 reported for COc1cc(OC)cc(C(NCCNC(C)C)c2ccc3ncc(-c4cnn(C)c4)nc3c2)c1.Cl (single isomer, unassigned) [Compound 39] = > 1000 nM

// COc1cc(OC)cc(C(CC(=O)NC(C)C)c2ccc3ncc(-c4cnn(C)c4)nc3c2)c1 (stereo not drawn) [Compound 23] : IC50 value = > 1000 nM

The value of IC50 measured for the compound CN(C)CCC(c1ccccc1)c1ccc2ncc(-c3cnn(C)c3)nc2c1 (stereo not drawn) [Compound 35] turned out to be > 1000 nM

====

Target: FGFR4 (h) (Homo sapiens, UniProt P22455)
Sequence (P22455 22-802): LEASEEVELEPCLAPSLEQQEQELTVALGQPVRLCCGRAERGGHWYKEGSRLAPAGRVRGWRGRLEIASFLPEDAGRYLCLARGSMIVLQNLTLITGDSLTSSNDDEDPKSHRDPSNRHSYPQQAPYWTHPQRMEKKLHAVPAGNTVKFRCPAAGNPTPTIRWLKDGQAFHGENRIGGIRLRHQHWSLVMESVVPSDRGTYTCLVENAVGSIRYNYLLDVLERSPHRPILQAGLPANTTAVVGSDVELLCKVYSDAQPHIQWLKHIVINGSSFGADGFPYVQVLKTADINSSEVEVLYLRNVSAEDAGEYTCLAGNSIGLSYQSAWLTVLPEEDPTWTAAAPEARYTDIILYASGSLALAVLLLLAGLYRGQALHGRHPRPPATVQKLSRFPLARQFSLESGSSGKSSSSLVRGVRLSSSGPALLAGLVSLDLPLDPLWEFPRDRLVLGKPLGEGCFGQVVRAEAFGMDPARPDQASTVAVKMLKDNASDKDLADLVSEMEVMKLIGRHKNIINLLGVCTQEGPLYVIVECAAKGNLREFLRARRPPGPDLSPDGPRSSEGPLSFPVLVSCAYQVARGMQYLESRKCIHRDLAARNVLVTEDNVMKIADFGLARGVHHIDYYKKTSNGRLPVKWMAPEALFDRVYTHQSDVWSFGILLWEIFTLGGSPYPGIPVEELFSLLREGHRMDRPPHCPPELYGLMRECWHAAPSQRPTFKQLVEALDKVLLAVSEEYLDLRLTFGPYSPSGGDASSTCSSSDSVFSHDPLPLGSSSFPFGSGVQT
Experiment: FGFR4 (enzymatic assay), TR-FRET
Type: biochemical
Details: 5 μM ATP; read-out: FGFR4 pIC50 (converted)
Task for the reader: assign each of the following molecules its reported IC50.

Lab note: COc1cc(OC)cc(C(NCCNC(C)C)c2ccc3ncc(-c4cnn(C)c4)nc3c2)c1.Cl (single isomer, unassigned) gave IC50 of > 1000 nM

Entry COc1cc(OC)cc(C(O)(CNCCNC(C)C)c2ccc3ncc(-c4cnn(C)c4)nc3c2)c1 (single isomer, unassigned) — recorded IC50 = > 1000 nM

According to the records, this molecule CN(C)CCC(c1ccccc1)c1ccc2ncc(-c3cnn(C)c3)nc2c1 (stereo not drawn) displays IC50 of > 1000 nM
